FYI, the data here is from patent US9469653B2.

Molecular target: human MAO-B enzyme (Homo sapiens (Human))
Assay: Screening of MAO-B activity inhibition (Amplex Red monoamine oxidase assay kit, benzylamine substrate)
Format: biochemical
Conditions: 10 uM of the synthesized compound, pargyline-corrected
Everything with Remaining activity of MAO-B (%) lower than 40% is No; everything else, including exactly 40%, is Yes.

Worked set:
N#Cc1cccc(-c2nc3ccc(N4CCCCC4)nc3o2)c1 ... No
c1ccc(-c2nc3ccc(N4CCCCCC4)nc3s2)cc1 ... No
COc1ccc(-c2nc3ccc(N(C)Cc4ccccc4)nc3o2)cc1 ... Yes
CN(Cc1ccccc1)c1ccc2nc(-c3cccc(F)c3)oc2n1 ... Yes

Data request: Remaining activity of MAO-B (%) >= 40% for N#Cc1ccc(-c2nc3ccc(N4CCCCC4)nc3o2)cc1 ?
Data returned: Yes

Data request: Decide: is the reported value of Remaining activity of MAO-B (%) for c1ccc(-c2nc3ccc(NCCN4CCOCC4)nc3s2)cc1 equal to or greater than 40%?
Data returned: Yes

Data request: Textbook exercise: given the entry Cc1ccc(-c2nc3ccc(N(C)Cc4ccccc4)nc3o2)cc1 , state whether its Remaining activity of MAO-B (%) is greater than or equal to 40%.
Data returned: Yes

Data request: Is Remaining activity of MAO-B (%) at least 40%? Consider Fc1cccc(-c2nc3ccc(N4CCCCC4)nc3o2)c1
Data returned: No

Data request: Entry CN(Cc1ccccc1)c1ccc2nc(-c3ccccc3)oc2n1 : is its Remaining activity of MAO-B (%) no less than 40%?
Data returned: Yes

Data request: Quick check, Remaining activity of MAO-B (%) >= 40%? Clc1cccc(-c2nc3ccc(NC4CCCC4)nc3o2)c1
Data returned: No

* * *

Target: human MAO-B enzyme (Homo sapiens (Human), UniProt P27338)
Sequence (P27338 whole entry): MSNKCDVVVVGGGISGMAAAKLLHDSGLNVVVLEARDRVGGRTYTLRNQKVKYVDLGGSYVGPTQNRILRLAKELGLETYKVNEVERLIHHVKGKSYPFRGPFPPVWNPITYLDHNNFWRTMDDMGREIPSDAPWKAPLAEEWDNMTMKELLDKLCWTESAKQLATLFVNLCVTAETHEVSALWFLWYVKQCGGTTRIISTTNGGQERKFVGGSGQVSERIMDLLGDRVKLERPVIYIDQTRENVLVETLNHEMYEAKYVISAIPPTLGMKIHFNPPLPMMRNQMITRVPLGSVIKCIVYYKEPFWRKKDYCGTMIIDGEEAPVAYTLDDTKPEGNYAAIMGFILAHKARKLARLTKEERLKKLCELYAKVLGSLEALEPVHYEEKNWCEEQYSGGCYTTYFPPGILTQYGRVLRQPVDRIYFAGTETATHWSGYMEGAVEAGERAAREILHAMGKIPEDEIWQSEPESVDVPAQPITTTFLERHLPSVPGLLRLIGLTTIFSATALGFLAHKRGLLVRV
Assay: Screening of MAO-B activity inhibition (Amplex Red monoamine oxidase assay kit, benzylamine substrate)
Format: biochemical
Conditions: activity assay at 0.001, 0.01, 0.1, 1 and 10 uM
assay metric: pIC50
Scale note: pIC50 = -log10(concentration in M).

Past entries and their recorded results:
CNc1ccc2nc(-c3ccccc3)sc2n1 ... 4.80
c1ccc(-c2nc3ccc(N4CCCCC4)nc3s2)cc1 ... 5.08
Fc1ccc(-c2nc3ccc(N4CCCCC4)nc3o2)cc1 ... 5.00
COc1ccc(-c2nc3ccc(N4CCCCC4)nc3o2)cc1 ... 5.82
c1ccc(-c2nc3ccc(N4CCCCC4)nc3o2)cc1 ... 5.70

Data request: Item under review: CNc1ccc2nc(-c3cccc(Cl)c3)oc2n1 . Reported pIC50?
Data returned: 5.52

Data request: Consider the compound Clc1ccccc1-c1nc2ccc(N3CCCC3)nc2o1 and give its measured pIC50.
Data returned: 3.95

Data request: Quick check: pIC50 of c1ccc(-c2nc3ccc(N4CCCC4)nc3o2)cc1 ?
Data returned: 6.39

Data request: Give the measured pIC50 of c1ccc(-c2nc3ccc(N4CCCC4)nc3s2)cc1 .
Data returned: 5.14

Data request: What pIC50 value was documented for this compound, c1ccc(CNc2ccc3nc(-c4ccccc4)sc3n2)cc1 ?
Data returned: 2.72

Data request: For the compound shown here, CNc1ccc2nc(-c3ccc(Cl)cc3)oc2n1 , give the reported pIC50.
Data returned: 5.52
